Entries below carry reported IC50 on murine double minute 2 (MDM2) (Homo sapiens, UniProt Q00987).
Sequence (Q00987 3-155): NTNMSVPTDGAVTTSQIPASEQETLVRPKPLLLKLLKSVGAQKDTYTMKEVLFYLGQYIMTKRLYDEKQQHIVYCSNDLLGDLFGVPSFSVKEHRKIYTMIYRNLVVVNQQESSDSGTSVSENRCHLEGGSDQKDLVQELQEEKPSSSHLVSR
Respond numerically; units are nM and should not be typed.

Molecule	Measurement Units	IC50
CC(C)COCC(CN(Cc1ccccc1)c1ccccc1)N1CCCC1 (centres unmarked)	nM	206

**Query** Requested read-out: IC50. Entry: CN1CCCC(n2nc(Cc3ccc(Cl)cc3)c3ccccc3c2=O)CC1 (centres unmarked)
**Result** 367
